- test summary: soluble on expression in E. coli; label from the status in PepcDB or PDB records
property label: soluble on expression in E. coli

SLIENVDAQADSSWPHRGQIEVRNLTVKYTEAGHAVLKNLSFSAEGRQRVGILGRTGSGKSSLFNALLKLVYTDGEISIDGVNWNKMPLEKWRKAFGVVPQKVFIFTGPLRMNLDPYGCHSDEELWRVAEEVGLKTVIEQFPDKLDFQLEYGGYVLSNGHKQLICLARSILSGARILLLDEPSAHLDPVTIKVLKKTLRQSFSTCTILLSEAKVEPLLECDSFLMMDKGQVKTYDSIQKLLNETSDLKQAISPAE : soluble
MSLSIKLIAVDMDGTFLSDQKTYNRERFMAQYQQMKAQGIRFVVASGNQYYQLISFFPEIANEIAFVAENGGWVVSEGKDVFNGELSKDAFATVVEHLLTRPEVEIIACGKNSAYTLKKYDDAMKTVAEMYYHRLEYVDNFDNLEDIFFKFGLNLSDELIPQVQKALHEAIGDIMVPVHTGNGSIDLIIPGVHKANGLRQLQKLWGIDDSEVVVFGDGGNDIEMLRQAGFSFAMENAGSAVVAAAKYRAGSNNREGVLDVIDKVLKHEAPFKEGHHHHHH : soluble
